Measured Target: catalytic domain of human PTP1B (Homo sapiens)
Sequence (P18031 1-321): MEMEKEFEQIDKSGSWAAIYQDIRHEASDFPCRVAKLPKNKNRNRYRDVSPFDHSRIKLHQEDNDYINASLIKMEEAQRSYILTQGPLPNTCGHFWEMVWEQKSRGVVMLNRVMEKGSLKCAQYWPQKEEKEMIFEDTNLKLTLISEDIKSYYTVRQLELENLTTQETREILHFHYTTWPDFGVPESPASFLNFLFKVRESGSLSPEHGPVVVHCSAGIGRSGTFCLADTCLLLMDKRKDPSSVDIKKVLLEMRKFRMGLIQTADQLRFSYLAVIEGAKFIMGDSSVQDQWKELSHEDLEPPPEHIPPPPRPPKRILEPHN
Parameter Measured: IC50
Answers without a unit are incomplete; give the number and then its unit.

Q: Fill blank: measured IC50 of the compound NNc1ccc(S(=O)(=O)O)cc1 [Compound F3, 4‐hydrazo‐phenylsulfonic acid] is ____.
A: 34 µM
